Source of measurements: patent US9999624B2

System: primary cortical neurons from PDAPP transgenic embryonic mice
protocol_text: PDAPP Primary Neuronal Assay (Abeta ELISA)
Type: cell-based
assay_context: Mus musculus, Primary cortical neuron; Abeta 1-40 in conditioned media, 24 h; Mean ± SEM; read-out: PDAPP Neuron A-beta (1-40) ELISA IC50
Structures can show the parent of a compound that is named as a salt.

molecule	IC50, nM
N#Cc1ccc(C(=O)Nc2ccc(F)c([C@]34CN(c5ncc(F)cn5)C[C@H]3CSC(N)=N4)c2)nc1 [Example 8, hydrochloride]	0.137

###

# maps each entry to its IC50
assay_system: human BACE1(1-460):Fc (Homo sapiens (Human))
Sequence (P56817 22-460): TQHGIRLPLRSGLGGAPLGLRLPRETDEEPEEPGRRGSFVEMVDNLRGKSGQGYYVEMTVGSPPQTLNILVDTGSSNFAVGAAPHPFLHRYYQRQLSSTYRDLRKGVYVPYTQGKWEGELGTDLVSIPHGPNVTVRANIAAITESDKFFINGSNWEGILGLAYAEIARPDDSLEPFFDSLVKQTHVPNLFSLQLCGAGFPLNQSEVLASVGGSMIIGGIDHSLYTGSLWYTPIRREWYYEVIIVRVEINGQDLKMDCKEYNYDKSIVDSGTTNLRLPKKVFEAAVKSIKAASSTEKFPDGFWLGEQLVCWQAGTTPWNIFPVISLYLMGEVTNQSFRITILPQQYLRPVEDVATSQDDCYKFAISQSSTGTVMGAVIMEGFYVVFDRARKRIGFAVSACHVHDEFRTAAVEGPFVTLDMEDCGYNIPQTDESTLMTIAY
protocol_text: BACE1 FRET Assay
assay_context: purified recombinant huBACE1:Fc, FRET substrate, pH 4.6; Mean ± SEM
Counter-ions that a name gives are not always drawn.
endpoint: IC50 (pM)

molecule	result_value
Cl.NC1=N[C@@]2(c3cccc(NC(=O)c4ccc(F)cn4)c3)CN(c3ncc(F)cn3)C[C@H]2CS1 [Example 1, hydrochloride]	610
NC1=N[C@@]2(c3cccc(NC(=O)c4ncc(F)cc4F)c3)CN(c3ncc(F)cn3)C[C@H]2CS1 [Example 7, hydrochloride]	739
